# Test system: Hepatitis C virus
# Test summary: Antiviral activity against HCV genotype 3a infected in human HuH7 cells assessed as reduction viral RNA level after 72 hrs by RT-PCR method
# Format: functional, cell-based, Hepacivirus hominis
# Condition summary: Huh-7, 72 h
Recorded metric: EC50

| Smiles str | Reported value |
| --- | --- |
| C=C[C@@H]1C[C@]1(NC(=O)[C@@H]1C[C@]23CCc4c(c(nc5ccc(OC)cc45)CCCCC[C@@H]4C[C@H]4OC(=O)N[C@@H](C4(C)CCCCC4)C(=O)N1C2)O3)C(=O)NS(=O)(=O)C1CC1 | 5.7 nM |
| C=C[C@@H]1C[C@]1(NC(=O)[C@@H]1C[C@]23CCc4c(c(nc5ccc(OC)cc45)CCCCC[C@@H]4C[C@H]4OC(=O)N[C@@H](C4(C)CCCCC4)C(=O)N1C2)O3)C(=O)NS(=O)(=O)C1(C)CC1 | 4.5 nM |
| C=C[C@@H]1C[C@]1(NC(=O)[C@@H]1C[C@]23CCc4c(c(nc5ccc(OC)cc45)CCCCC[C@@H]4CCC[C@H]4OC(=O)N[C@@H](C(C)(C)C)C(=O)N1C2)O3)C(=O)NS(=O)(=O)C1CC1 | 6.8 nM |

These measurements were taken from ChEMBL document CHEMBL3867486.
